- Target: UniProt:Q9Y5Y6
- Sequence (Q9Y5Y6 whole entry, the tested form may be a part): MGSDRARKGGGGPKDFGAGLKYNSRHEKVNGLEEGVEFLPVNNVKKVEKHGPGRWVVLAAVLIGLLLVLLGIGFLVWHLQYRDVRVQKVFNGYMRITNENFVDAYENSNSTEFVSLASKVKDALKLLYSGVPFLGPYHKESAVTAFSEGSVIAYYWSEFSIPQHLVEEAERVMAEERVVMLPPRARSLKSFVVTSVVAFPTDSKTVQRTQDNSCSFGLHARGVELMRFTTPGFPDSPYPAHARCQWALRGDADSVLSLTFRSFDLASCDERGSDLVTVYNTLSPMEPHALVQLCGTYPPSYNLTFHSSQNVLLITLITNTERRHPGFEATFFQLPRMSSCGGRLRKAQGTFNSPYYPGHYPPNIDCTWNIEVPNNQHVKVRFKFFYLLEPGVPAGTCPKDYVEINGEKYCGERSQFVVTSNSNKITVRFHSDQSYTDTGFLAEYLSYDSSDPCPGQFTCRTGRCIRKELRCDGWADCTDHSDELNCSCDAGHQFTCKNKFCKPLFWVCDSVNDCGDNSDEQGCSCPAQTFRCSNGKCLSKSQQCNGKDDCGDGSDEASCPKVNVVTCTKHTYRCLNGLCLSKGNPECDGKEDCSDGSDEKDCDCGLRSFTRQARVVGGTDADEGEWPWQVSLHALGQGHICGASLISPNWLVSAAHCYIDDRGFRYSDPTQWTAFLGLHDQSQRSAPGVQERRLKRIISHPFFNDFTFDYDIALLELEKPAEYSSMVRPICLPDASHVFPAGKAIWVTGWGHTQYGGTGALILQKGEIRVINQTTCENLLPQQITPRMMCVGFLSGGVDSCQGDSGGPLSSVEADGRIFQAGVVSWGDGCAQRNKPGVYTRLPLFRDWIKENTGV
- Procedure Details: Inhibition of recombinant hexahistidine tagged human MT-SP1 (596 to 855 residues) expressed in Escherichia coli BL21 gold (DE3) cells using Boc-Leu-Arg-Arg-AMC as substrate measured every 30 secs for 10 mins by fluorescence based assay
Would you kindly list Ki for each of these molecules?
Give the value in µM but do not write µM after it.

Using UniProt:Q9Y5Y6 as the test system, report measured Ki of `N=C(N)c1ccc(Oc2cc(Oc3ccc(CN)cc3)cc(Oc3ccc(CN)cc3)c2)cc1` .
0.775

Using UniProt:Q9Y5Y6 as the test system, report measured Ki of `NCc1ccc(Oc2cc(Oc3ccc(CN)cc3)cc(Oc3ccc(CN)cc3)c2)cc1` .
18.4
